Assay: Ratio of TD50/ED50.
Assay type: ADME
Conditions: read-out: TI

Compound	selectivity ratio
O=C1NC(=O)C(c2ccccc2)(c2ccccc2)N1 [PHENYTOIN]	6.6

====

Assay: Minimal motor impairment was measured in rat by overt evidence of ataxia upon intraperitoneal administration
Settings: in vivo, ip
// TD50 lookup, one value per entry

Input Smiles	TD50
Cl.Cn1cc(C(=O)CN2CCCCCC2)cc1C(=O)c1ccc(Cl)cc1	> 500 mg/kg
O=C(CN1CCOCC1)c1c[nH]c(C(=O)c2ccc(Cl)cc2)c1	88 mg/kg
CCN(CC)CC(=O)c1c(C)c(C(=O)c2ccc(Cl)cc2)n(C)c1C	> 250 mg/kg
Cc1c(C(=O)CN2CCCC2)c(C)n(C)c1C(=O)c1ccc(Cl)cc1	203 mg/kg
CCN(CC)CC(=O)c1c(C)c(C(=O)c2ccc(Cl)cc2Cl)n(C)c1C	> 500 mg/kg
CCN(CC)CC(=O)c1cc(C(=O)c2ccc(Cl)cc2)n(C)c1.Cl	> 500 mg/kg
Cn1cc(C(=O)CN2CCCCC2)cc1C(=O)c1ccc(Cl)cc1	342 mg/kg
Cl.Cn1cc(C(=O)CN2CCOCC2)cc1C(=O)c1cccc(Cl)c1	> 500 mg/kg
Cn1cc(C(=O)CN2CCCC2)cc1C(=O)c1ccc(Cl)cc1	> 500 mg/kg
Cc1c(C(=O)CN2CCCC2)c(C)n(C)c1C(=O)c1ccc(Cl)cc1Cl.Cl	> 200 mg/kg
Cc1c(C(=O)CN2CCCCC2)c(C)n(C)c1C(=O)c1ccc(Cl)cc1	> 500 mg/kg

====

Test system: Rattus norvegicus
Experiment: Compound was tested for anticonvulsant activity by maximal electroshock seizure(MES) test in rat upon intraperitoneal administration
Format: functional
Details: ip
# label = 1 (yes) if ED50 < 20 mg/kg else 0 (no)

Molecule	Assigned Class
Cl.Cn1cc(C(=O)CN2CCOCC2)cc1C(=O)c1cccc(Cl)c1	0 (no)
Cl.Cn1cc(C(=O)CN2CCCCCC2)cc1C(=O)c1ccc(Cl)cc1	0 (no)
CCN(CC)CC(=O)c1cc(C(=O)c2ccc(Cl)cc2)n(C)c1.Cl	1 (yes)
CCN(CC)CC(=O)c1c(C)c(C(=O)c2ccc(Cl)cc2)n(C)c1C	1 (yes)
O=C(CN1CCOCC1)c1c[nH]c(C(=O)c2ccc(Cl)cc2)c1	0 (no)
Cn1cc(C(=O)CN2CCCCC2)cc1C(=O)c1ccc(Cl)cc1	1 (yes)
Cc1c(C(=O)CN2CCCC2)c(C)n(C)c1C(=O)c1ccc(Cl)cc1Cl.Cl	1 (yes)
Cn1cc(C(=O)CN2CCCC2)cc1C(=O)c1ccc(Cl)cc1	1 (yes)
Cc1c(C(=O)CN2CCCCC2)c(C)n(C)c1C(=O)c1ccc(Cl)cc1	0 (no)
Cc1c(C(=O)CN2CCCC2)c(C)n(C)c1C(=O)c1ccc(Cl)cc1	1 (yes)
NC(=O)N1c2ccccc2C=Cc2ccccc21 [CARBAMAZEPINE]	0 (no)
CCN(CC)CC(=O)c1c(C)c(C(=O)c2ccc(Cl)cc2Cl)n(C)c1C	1 (yes)

====

The following molecules are shown together with reported TD50 values.
Assay: Minimal motor impairment was measured in mouse by rotating rod test upon intraperitoneal administration
Type: toxicity
Details: in vivo, ip
Measure Name: TD50 (mg/kg)

Input Smiles	Measure Name	Value Relation Sign	Measured Value
Cc1c(C(=O)CN2CCCC2)c(C)n(C)c1C(=O)c1ccc(Cl)cc1Cl.Cl	TD50	=	23.8
CCN(CC)CC(=O)c1cc(C(=O)c2ccc(OC)cc2)n(C)c1.Cl	TD50	=	45.1
CCN(CC)CC(=O)c1cc(C(=O)c2ccc(Cl)cc2)n(C)c1.Cl	TD50	=	40.5
Cl.Cn1cc(C(=O)CN2CCOCC2)cc1C(=O)c1cccc(Cl)c1	TD50	=	110
Cl.Cn1cc(C(=O)CNC23C[C@H]4C[C@@H](C2)C[C@@H](C3)C4)cc1C(=O)c1ccccc1Cl	TD50	>	250
CCN(CC)CC(=O)c1c(C)c(C(=O)c2ccc(Cl)cc2Cl)n(C)c1C	TD50	=	50.6

====

Assay: Minimal motor impairment was measured in mouse by rotating rod test upon intraperitoneal administration
Format: toxicity
Conditions: in vivo, ip

Input Smiles	Units Text	TD50
CCN(CC)CC(=O)c1c(C)c(C(=O)c2ccc(Cl)cc2)n(C)c1C	mg/kg	37.7
Cn1cc(C(=O)CN2CCCC2)cc1C(=O)c1ccc(Cl)cc1	mg/kg	240
Cn1cc(C(=O)c2ccc(Cl)cc2)cc1C(=O)CN1CCCCC1	mg/kg	141
Cc1c(C(=O)CN2CCOCC2)c(C)n(C)c1C(=O)c1ccc(Cl)cc1	mg/kg	233

====

Each record here notes measured selectivity ratio.
Test: Ratio of TD50/ED50; TI indicates Therapeutic index
Conditions: read-out: TI

Input Smiles	Value Relation Sign	selectivity ratio
Cc1c(C(=O)CN2CCCCC2)c(C)n(C)c1C(=O)c1ccc(Cl)cc1	=	4.73
Cl.Cn1cc(C(=O)CNC23C[C@H]4C[C@@H](C2)C[C@@H](C3)C4)cc1C(=O)c1ccccc1Cl	>	1.57
CCN(CC)CC(=O)c1cc(C(=O)c2ccc(Cl)cc2)n(C)c1.Cl	=	2.81
O=C(CN1CCOCC1)c1c[nH]c(C(=O)c2ccc(Cl)cc2)c1	=	0.98

These measurements were taken from ChEMBL document CHEMBL1130035.
